test system: Saccharomyces cerevisiae; assay: protein stability index of tFT-peptide fusion (C-terminal peptide) (PSI (0-1 scale)); higher = more stable (slower turnover); details: genetic background: das1 deletion; temperature: 30 C;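 note: PSI is a weighted mean of sequencing reads over stability bins, variants kept only with over 10 reads, mCherry proximal and sfGFP distal, peptide attached via GGGS linker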
Recorded endpoint: protein stability index
When you answer, write just the number.

Lookup: State the recorded protein stability index for this entry: `VVVVWVVVEIVR`
Found: 0.164

Lookup: Item under review: `FFLLSVVLKYSV` . Reported protein stability index?
Found: 0.103

Lookup: If you can, please state the reported protein stability index value of `WIYKIVTYEKKS` .
Found: 0.648

Lookup: Query: protein stability index; subject: `GSRRYYFTWVYQ`
Found: 0.655

Lookup: Recorded protein stability index for `YFFFFLHFNFAF` , please?
Found: 0.246

Lookup: Would you mind telling me what protein stability index value was observed for `PPPPLFLIVLHL` ?
Found: 0.465

Lookup: Which protein stability index value is on record for `RCQILSYCLLFV` ?
Found: 0.34

Lookup: protein stability index for `FRVILISACESV` ?
Found: 0.403

Lookup: Query: protein stability index; subject: `NRFRLFRLNFSV`
Found: 0.606

Lookup: Fill in the blank: the reported protein stability index of `FSLLLSLSLFHC` is ____.
Found: 0.534

Lookup: Given the sequence `FSLLFVRFCFFL` , what is its reported protein stability index?
Found: 0.256

Lookup: What protein stability index value was documented for this sequence, `RVGYSIIIIGIE` ?
Found: 0.312

Lookup: So what does the record say about protein stability index for `KCEKGLYCCIAF` ?
Found: 0.518

Lookup: Entry `GCYWPKTLGILC` : reported protein stability index = ?
Found: 0.408

Lookup: Request the reported protein stability index associated with `VVGVVVCWGRGW`
Found: 0.463

Lookup: Can you look up the measured protein stability index of `CGILACSVCTFF` for me?
Found: 0.427

Lookup: Query: protein stability index; subject: `LFWPPCYLFFCL`
Found: 0.473

Lookup: Looking for the measured protein stability index of `LFWTLSKYLIIC` , can you help?
Found: 0.34

Lookup: Suppose we examine the sequence `VVSGLNYCLVLS` ; what protein stability index value has been reported?
Found: 0.29

Lookup: So what does the record say about protein stability index for `FASALAPLSAVA` ?
Found: 0.366

Lookup: Name the recorded protein stability index for `WCAGCLGWWLQS` .
Found: 0.694

Lookup: # input sequence: `FLFFWRASLFFW` ; wanted: its protein stability index
Found: 0.183

Lookup: Sample `WLVVGGVVLLVV` — what was its protein stability index?
Found: 0.213

Lookup: Record request: protein stability index value, item `VLICFSVFSWVV`
Found: 0.0368

Lookup: # lookup: protein stability index of `HPLYWRCVVVLN`
Found: 0.211

Lookup: What value of measured protein stability index is listed for `LVRDEVLKVKLV` ?
Found: 0.643

Lookup: Entry `LPLCGLLLFLFF` : reported protein stability index = ?
Found: 0.433

Lookup: So what does the record say about protein stability index for `GGWGSSLGVWVG` ?
Found: 0.644
